Tested on: K4 kissing-loop RNA reporter;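 note: bound reporter read as fluorescence of individual clusters on recovered sequencing chips by microscopy, with normalized cluster intensities fitted with a binding model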
EXPERIMENT_SUMMARY: apparent KD of K4 kissing-loop reporter; higher = weaker reporter binding
EXPERIMENTAL_SETUP: Eterna round: R107; input ligand: none
I'd be grateful if you could share measured apparent KD of K4 kissing-loop reporter for these entries.
Numbers only, in nM.

These recorded examples may help you get a feel for the data.
SEQUENCE_DATA	QUANTITY_KIND	UNIT_LABEL	VALUE_OBSERVED
AAAUUUGCUCAUGAUACCAGCCAGUGAUGUUGGUUGGUCCACCGUGUCCGAACAUUAAGCGGCCCUUGGCAGCAUGAUGCGCGUA [Ininveaen]	apparent KD of K4 kissing-loop reporter	nM	116
AGUCCACUCUAAAGAGUGGACCUAAGGGAUACCAGUGAUGUUGGUCACCCUUGGCAGCCCGCUGUCAUCGAUAAAGAUGGCAGGA	apparent KD of K4 kissing-loop reporter	nM	129

Kindly give each listed record's apparent KD of K4 kissing-loop reporter.
1. GGAUAGGACGGAGGAUAUGGGCUAGGCAAGAAUAACUUGUCUAGCAAAUCCAUGAGGAGUGAUGUUCCAGAAGGUUGUCCUAUCG [FmnBX 1 G10+U75]
2. AAAUAAAGCAGUCACCCAGUGAUGUUGGAAGGAGCGUGCGAAAGCACAGGUAGGUCGCCGAUAGGACAAAGUCCAAGUGGCUGCA [#SwitchBubble 30 #K4Early]
3. GGUGCUGUUUGUGCCGCCUUCCUCGUUCCUCGAGGACCGGUACGGCCGCCACUCGAGUGAUGUUUGGGUAGCGAUCCCUGCUAGU [Bdazzled - #13 Exc. Tryptophan A]
4. CAGAUGUAGGCGGCCGCCACUCUCAUUACCGUACGCAAGUAUGAUUAGAAGUGAUGUUUCUCGGUGAGGACCGGGCCAUUCCCGA [theeternabot_sameState_KL_Trp_B_27]

Reply:
[85.2, 487, 963, 670]

----------
System: MS2 coat protein
EXPERIMENT_SUMMARY: apparent KD of MS2 coat protein; designed switch direction (-1 OFF switch, 1 ON switch): 1; higher = weaker reporter binding
EXPERIMENTAL_SETUP: input ligand: none
Provide the reported apparent KD of MS2 coat protein of each item.
Answer with the value and then the unit.

Answered examples (8):
SEQUENCE_DATA	apparent KD of MS2 coat protein
GGAAUGUGAUGUUACAUGAGGAUCACCCAUGUAGUGACAACUAAGGAUAUCUGAAAGGAAGGAGAGGAGAAGGUAGGAUCACAA [AK SSNG3-V2-16] (Eterna round: R96, puzzle: Same State NG 3)	40.8 nM
CUUAUUAAUGCAGGAUAUGAUUAACAUGAGGAUCACCCAUGUGGUGUUGUGAGUAAGGAGAGUGAUCAGAAGGGCAUUUUUUUU [JMF's solution 41] (Eterna round: R96, puzzle: Same State NG 2)	656 nM
GGUCGGACCUACAUGAGGAUCACCCAUGUUCCGGAAACGGCACAGGAUAUCUGUCCGAAAAGGUCAGAGAAGGGUGAACCGACC [Fiskers NG3ss - 75] (Eterna round: R96, puzzle: Same State NG 3)	1880 nM
AGUAUACAUGAGGAUCACCCAUGUCAGUAACUGACAGGAUAUGCGUUGCAUCACUGUAAUGCAGAAGGGUCUUGUA [Same State 1 - Mod of JMF's solution 1] (Eterna round: R96, puzzle: Same State 1)	379 nM
UUCUCAUUUACAUGAGGAUCACCCAUGUUUUUUUGUCAGAAAUAGGAUAUAGGUCUCUCGUUUUACUAGAAGGAUUUCUUUAUU [JR_SSNG3_Sub088] (Eterna round: R96, puzzle: Same State NG 3)	145 nM
UGCCGGAUACCGACUACAUGAGGAUCACCCAUGUUAUCUCGUUAGGAUAUACUAACAACAGAUUAGUAGAAGGGACGCGGGCUU [Eternabot solution 23] (Eterna round: R96, puzzle: Same State NG 3)	30.7 nM
ACACUCCGUGGAGGAUAUGGGCCUGCCCGGGAUACCGGGCCUAACACAUGAGGAUCACCCAUGUCCCAGAAGGCCGCUGGAGCC [Enenala] (Eterna round: R96, puzzle: Same State NG 2)	120 nM
CCGGUUUAUGGAGGAUAUGGAGCCUUAUUGGCUCCAGAAGGCUAAUACAUGAGGAUCACCCAUGUUCCGGCGGUCAAUAGACCG [Eli NG1ss - 58] (Eterna round: R96, puzzle: Same State NG 1)	126 nM

Moving on to the next sequence.
Ask: So what's the measured apparent KD of MS2 coat protein for this one? AUUGUUUAUGCAGGAUAUGAUUAACAUGAGGAUCACCCAUGUGGUGUUGUGAGUAAGGAGAGUGAUCAGAAGGGCAUUUUUUUU [JMF's solution 69] (Eterna round: R96, puzzle: Same State NG 2)
Reply: 411 nM
